Experiment: splicing luciferase reporter signal modulators, primary screen, spliceosome inhibition project, cell-based, HEK293, splice +/- reporter (AID 1101);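 also: HEK293 cells carrying a splicing-competent luciferase reporter gene; test concentration not given here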
Conditions: luminescence, 24 h, higher = more signal, called active from +8 up or from −8 down
Consider the following partition of reported z-score into named classes: lower range: < -0.1; middle range: ≥ -0.1 and < 0.4; upper range: ≥ 0.4

compound=CC(=O)OC[C@H]1O[C@H](CC=NO[C@@H](C)c2cc(-c3c(C)cc(C)cc3C)no2)C=C[C@@H]1OC(C)=O group_label="upper range"
compound=CC=CC1=C(CO)[C@H](O)[C@H]2O[C@H]2[C@@H]1O group_label="upper range"
compound=COC(=O)[C@H](C)NC(=O)CC=C[C@@H](C)[C@@H]1C=C[C@H](O)[C@@H](CO)O1 group_label="middle range"
compound="COC(=O)[C@H](C)NC(=O)CCC1CC(OC(=O)NCc2cccc3ccccc23)CC2(CCCC(COC(=O)NCc3cccc(C(F)(F)F)c3)O2)O1 (some centres undefined)" group_label="lower range"
compound=CC(C)=NOC[C@@H](O)[C@H]1O[C@@H]2OC(C)(C)O[C@@H]2[C@H]1O group_label="middle range"
compound=C=CC[C@@H]1C=C[C@H](ON=C(C)CCN2CCCc3nc(C)c(C)cc32)[C@@H](CO)O1 group_label="middle range"
compound=C[C@@H](c1ccccc1)N1C(=O)[C@H]2[C@H]3[C@H](O)[C@H](O)CC(=NOCc4ccccc4)[C@@H]3CC[C@H]2C1=O group_label="middle range"
compound="O=C(NCCC[N+]1=CC=NC1c1ccccc1)N1CCCc2nc(-c3ccc(Br)cc3)ccc21 (centres undefined)" group_label="lower range"
compound=O=C1[C@H]2[C@H]3[C@H](O)[C@H](O)CC(=NO[C@@H]4O[C@H](CO)[C@@H](O)[C@H](O)[C@H]4O)[C@@H]3CC[C@H]2C(=O)N1C[C@@H]1CCCO1 group_label="lower range"
compound=CCN1C(=O)[C@H]2[C@H]3[C@H](O)[C@H](O)CC(=NO[C@@H](C)c4cc(-c5c(C)cc(C)cc5C)no4)[C@@H]3CC[C@H]2C1=O group_label="lower range"
compound="CO[C@@H](C(C)C)[C@@H](C)C1OC(=O)CC1O (some centres undefined)" group_label="upper range"
compound=COC(=O)[C@@H]1CC[C@H](C)[C@@H](c2ccc(C)cc2)N1C(=O)c1ccc(C=NOC[C@H]2O[C@H](c3ccccc3)C=C[C@@H]2Oc2ccc(OC)cc2)cc1 group_label="middle range"
compound="COC(=O)[C@H](C)NC(=O)CCC1CC(OC(=O)NCCc2ccc(F)cc2)CC2(CCCC(COC(=O)NCCc3ccccc3OC)O2)O1 (some centres undefined)" group_label="lower range"
compound=O=C1C2=CC[C@H]3C(=O)N(C[C@@H]4CCCO4)C(=O)[C@H]3[C@H]2[C@H](O)[C@@H]2O[C@H]12 group_label="lower range"
